tested on: U2OS; assay: Multiplex assay against U2OS; type: toxicity, cell-based; details: human, 24 h, 1 µM, compound concentration 1 uM, replicate 2
TEST READOUT: Population Apoptotic (%)
Note: a bare number is incomplete; add the unit.

Query :: Identify Population Apoptotic (%) associated with the compound Nc1c(C(=O)NCc2ccc(C(=O)NCCCC3CCCCC3)cc2)cnn1-c1ccccc1
Result :: 25%

Query :: Identify Population Apoptotic (%) associated with the compound CN1CCN(c2ccc(OC(F)(F)F)c(Nc3ncc4c(n3)-c3c(c(C(N)=O)nn3CCO)CC4)c2)CC1
Result :: 57%

Query :: Identify Population Apoptotic (%) associated with the compound Cc1nc(-c2ccc(-c3ccc(C(=O)N4CCc5cc6c(cc54)C4(CCN(C)CC4)CO6)cc3)c(C)c2)no1
Result :: 0%

Query :: Identify Population Apoptotic (%) associated with the compound Cn1cc(-c2[nH]c3cc(NC(=O)[C@H](N)C4CCCCC4)cc4c3c2C=NNC4=O)cn1
Result :: 43%

* * *

Exercise: for every item that follows, state its recorded Population Tubulin-Different-Phenotype (%).
system: HEK-293T; assay: Multiplex assay against HEK293T; format: toxicity, cell-based; details: human, 48 h, 10 µM, compound concentration 10 uM, replicate 2;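 also: share of the cells with healthy nuclei that show this phenotype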

Query :: Identify Population Tubulin-Different-Phenotype (%) associated with the compound CC(C)(O)CNc1ncc(-c2ccnc(Nc3ccnc(Cl)c3)n2)c(CC2CC2)n1
Result :: 71%

Query :: Identify Population Tubulin-Different-Phenotype (%) associated with the compound CN(C)C(=O)/C(C#N)=C/c1ccc(-c2nc3cnc4[nH]ccc4c3n2C2CCCCC2)o1
Result :: 49%

Query :: Identify Population Tubulin-Different-Phenotype (%) associated with the compound OC1(c2ccc(Cl)cc2)CCN(Cc2c[nH]c3ccccc23)CC1
Result :: 95%

Query :: Identify Population Tubulin-Different-Phenotype (%) associated with the compound CN1CCCC(n2nc(Cc3ccc(Cl)cc3)c3ccccc3c2=O)CC1.Cl (stereo unspecified) [AZELASTINE HYDROCHLORIDE]
Result :: 15%

Query :: Identify Population Tubulin-Different-Phenotype (%) associated with the compound CCn1c(=O)c(-c2ccc(Cl)cc2Cl)cc2cnc(Nc3ccc(N4CCNCC4)c(F)c3)nc21
Result :: 82%

Query :: Identify Population Tubulin-Different-Phenotype (%) associated with the compound CC(C)NCC(O)COc1ccc(CCOCC2CC2)cc1.Cl (stereo unspecified) [BETAXOLOL HYDROCHLORIDE]
Result :: 77%

* * *

tested on: Fibroblast; assay: Incucyte cell viability with human fibroblast; assay type: toxicity, cell-based; settings: 12 h, 10 µM, compound concentration 10 uM, replicate number 2, timepoint 12 hours; also: filed as whole numbers so only -1 and 0 and 1 occur
Exercise: for every item that follows, state its recorded Growth Rate.
Answer using only a numeral; do not append any unit.

Query :: Identify Growth Rate associated with the molecule CCCCN1CCC(COC(=O)c2cc(Cl)c(N)c3c2OCCO3)CC1.Cl
Result :: 0

Query :: Identify Growth Rate associated with the molecule Nc1c(C(=O)NCc2ccc(C(=O)NCCCC3CCCCC3)cc2)cnn1-c1ccccc1
Result :: 0

Query :: Identify Growth Rate associated with the molecule CN([C@@H]1CCc2c(CC(=O)O)c3ccccc3n2C1)S(=O)(=O)c1ccc(F)cc1
Result :: 1

Query :: Identify Growth Rate associated with the molecule CNCCN1CCC(OCc2ccccc2)CC1
Result :: 1

Query :: Identify Growth Rate associated with the molecule C[C@@H](c1cccc(CN)c1)n1cc(Cl)cc(C(N)=O)c1=N.Cl
Result :: 0

Query :: Identify Growth Rate associated with the molecule CN([C@@H]1CCc2c(CC(=O)O)c3cc(S(C)(=O)=O)ccc3n2C1)S(=O)(=O)c1ccc(F)cc1 [CRTH2-negative-control]
Result :: 0

Query :: Identify Growth Rate associated with the molecule C=C1/C(=C\C=C2/CCC[C@]3(C)[C@@H]([C@H](C)/C=C/C=C/C(O)(CC)CC)CC[C@@H]23)C[C@@H](O)C[C@@H]1O
Result :: 0

Query :: Identify Growth Rate associated with the molecule CCCc1nc2c(C)cc(-c3nc4ccccc4n3C)cc2n1Cc1ccc(-c2ccccc2C(=O)O)cc1
Result :: 1

Query :: Identify Growth Rate associated with the molecule C[C@H]1CC(=O)Nc2cc(C(=O)NCCC3CC3)ccc2N1C(=O)N1CC2CC2C1 (stereo partly specified)
Result :: 0

Query :: Identify Growth Rate associated with the molecule C[S+]([O-])c1ccc(-c2nc(-c3ccncc3)c(-c3ccc(F)cc3)[nH]2)cc1 (stereo unspecified)
Result :: 1

Query :: Identify Growth Rate associated with the molecule O=C(NCCCC1CCCCC1)c1ccc(CNC(=O)c2cnn(-c3ccccc3)c2C(F)(F)F)cc1
Result :: 0

Query :: Identify Growth Rate associated with the molecule CN1C(=O)c2sccc2N(C)c2nc(Nc3ccc(S(N)(=O)=O)cc3)ncc21
Result :: 1

Query :: Identify Growth Rate associated with the molecule CN(c1ccnc(CNc2nc(Nc3ccc4c(c3)CC(=O)N4)ncc2C(F)(F)F)n1)S(C)(=O)=O
Result :: 0

Query :: Identify Growth Rate associated with the molecule CCOCCn1cc(C(=O)Nc2ccc(-n3nc(-c4cccnc4)cc3C(F)(F)F)cn2)ccc1=O
Result :: 1

Query :: Identify Growth Rate associated with the molecule Cc1cccc([C@H](C)c2c[nH]cn2)c1C.Cl [DEXMEDETOMIDINE HYDROCHLORIDE]
Result :: 1

Query :: Identify Growth Rate associated with the molecule C[C@H](c1ccc(F)cc1)N(Cc1ccc(Cl)c(C(=O)O)c1)C(=O)c1cnc2ccccc2c1
Result :: 1

* * *

Exercise: for every item that follows, state its recorded Population Mitochondria Different-Phenotype (%).
system: U2OS; assay: Multiplex assay against U2OS; format: toxicity, cell-based; settings: human, 24 h, 10 µM, compound concentration 10 uM, replicate 2
Please respond with the number in % and leave the unit unwritten.

Query :: Identify Population Mitochondria Different-Phenotype (%) associated with the molecule Cn1cc(-c2[nH]c3cc(NC(=O)[C@H](N)C4CCCCC4)cc4c3c2C=NNC4=O)cn1
Result :: 61

Query :: Identify Population Mitochondria Different-Phenotype (%) associated with the molecule C=CC(=O)Nc1cccc(C(=O)Nc2ccc(Nc3cc(-c4[nH]c(SC)nc4C)ccn3)cc2)c1
Result :: 14

Query :: Identify Population Mitochondria Different-Phenotype (%) associated with the molecule CN(C)C(=O)N[C@H]1CC[C@H](CCN2CCN(c3cccc(Cl)c3Cl)CC2)CC1.Cl [CARIPRAZINE HYDROCHLORIDE]
Result :: 95

Query :: Identify Population Mitochondria Different-Phenotype (%) associated with the molecule c1cn2cc(-c3ccc4cn[nH]c4c3)nc(Nc3ccc(N4CCOCC4)cc3)c2n1
Result :: 36

Query :: Identify Population Mitochondria Different-Phenotype (%) associated with the molecule CC(C)(O)CNc1ncc(-c2ccnc(Nc3ccnc(Cl)c3)n2)c(CC2CC2)n1
Result :: 89

Query :: Identify Population Mitochondria Different-Phenotype (%) associated with the molecule O=C1NCN(c2ccccc2)C12CCN(CCCOc1ccc(F)cc1)CC2 [SPIRAMIDE]
Result :: 21

Query :: Identify Population Mitochondria Different-Phenotype (%) associated with the molecule CN1CCCC(n2nc(Cc3ccc(Cl)cc3)c3ccccc3c2=O)CC1.Cl (configuration not stated) [AZELASTINE HYDROCHLORIDE]
Result :: 100

* * *

test system: Fibroblast; assay: Multiplex assay against human fibroblast; format: toxicity, cell-based; settings: 12 h, 1 µM, compound concentration 1 uM, replicate 2
Exercise: for every item that follows, state its recorded Population Tubulin-Different-Phenotype (%).
Please respond with the number in % and leave the unit unwritten.

Query :: Provide Population Tubulin-Different-Phenotype (%), tested on Fibroblast, for COc1ncc(-c2ccc3nccc(-c4ccnnc4)c3c2)cc1NS(=O)(=O)c1ccc(F)cc1F .
Result :: 23

Query :: Provide Population Tubulin-Different-Phenotype (%), tested on Fibroblast, for C=CC(=O)Nc1cc2c(Nc3ccc(F)c(Cl)c3)ncnc2cc1OCCCN1CCOCC1.Cl.Cl [CANERTINIB DIHYDROCHLORIDE] .
Result :: 91

Query :: Provide Population Tubulin-Different-Phenotype (%), tested on Fibroblast, for Cc1c(-c2ccc(O)cc2)n(Cc2ccc(OCCN3CCCCCC3)cc2)c2ccc(O)cc12 .
Result :: 17

Query :: Provide Population Tubulin-Different-Phenotype (%), tested on Fibroblast, for C[C@@]1(C(=O)Nc2ccc(F)nc2)CCCN1c1nc(Nc2cc(C3CC3)n[nH]2)c2cccn2n1 .
Result :: 66

Query :: Provide Population Tubulin-Different-Phenotype (%), tested on Fibroblast, for CNCc1ccc(-c2cc(-c3nc(-c4ccc(S(=O)(=O)C(C)C)cc4)cnc3N)on2)cc1 .
Result :: 0

Query :: Provide Population Tubulin-Different-Phenotype (%), tested on Fibroblast, for C[C@@H](NCCCc1cccc(C(F)(F)F)c1)c1cccc2ccccc12.Cl [CINACALCET HYDROCHLORIDE] .
Result :: 36

Query :: Provide Population Tubulin-Different-Phenotype (%), tested on Fibroblast, for CN(C)CC#Cc1ccc(OCCCc2sc(N3CCc4cccc(C(=O)Nc5nc6ccccc6s5)c4C3)nc2C(=O)O)c(F)c1 .
Result :: 27

Query :: Provide Population Tubulin-Different-Phenotype (%), tested on Fibroblast, for CC(C)(O)CNc1ncc(-c2ccnc(Nc3ccnc(Cl)c3)n2)c(CC2CC2)n1 .
Result :: 14
